Molecular target: T1, hu-MCSP(D3 domain)-avi-his (human, UniProt Q6UVK1 1582-2224)
T1 construct: Recombinant D3 domain with avi and his tags; also called human MCSP(D3 domain)-avi-his; Human MCSP D3
T1 sequence: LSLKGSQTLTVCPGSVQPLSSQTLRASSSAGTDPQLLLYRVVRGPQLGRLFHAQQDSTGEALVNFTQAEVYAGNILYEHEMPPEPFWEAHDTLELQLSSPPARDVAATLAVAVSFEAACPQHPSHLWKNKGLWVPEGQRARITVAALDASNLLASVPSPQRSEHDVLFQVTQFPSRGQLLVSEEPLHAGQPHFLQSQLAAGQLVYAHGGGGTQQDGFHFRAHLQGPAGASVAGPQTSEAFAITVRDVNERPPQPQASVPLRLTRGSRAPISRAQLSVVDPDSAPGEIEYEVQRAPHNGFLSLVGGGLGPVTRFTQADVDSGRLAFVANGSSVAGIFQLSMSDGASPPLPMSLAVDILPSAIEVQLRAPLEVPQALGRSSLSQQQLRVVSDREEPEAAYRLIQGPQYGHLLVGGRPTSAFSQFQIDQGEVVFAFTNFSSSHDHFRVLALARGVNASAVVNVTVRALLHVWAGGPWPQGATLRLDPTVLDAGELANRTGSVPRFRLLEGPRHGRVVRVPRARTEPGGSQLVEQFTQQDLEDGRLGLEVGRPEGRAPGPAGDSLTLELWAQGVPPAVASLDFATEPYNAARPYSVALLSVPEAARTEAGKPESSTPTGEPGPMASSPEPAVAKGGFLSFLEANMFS
Test: SPR ProteOn XPR36, 25 C; IgG captured via anti-human F(ab')2, MCSP D3 as analyte
Listed here are binders together with their documented Kd.

Recorded results for 4 binders are shown here.
BINDER	Kd
M4-3(C1)/ML2(E10) IgG (antibody, V domains shown, Human IgG1) VH: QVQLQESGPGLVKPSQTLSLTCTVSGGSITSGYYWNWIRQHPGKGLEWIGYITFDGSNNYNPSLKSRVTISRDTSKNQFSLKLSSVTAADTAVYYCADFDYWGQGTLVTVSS VL: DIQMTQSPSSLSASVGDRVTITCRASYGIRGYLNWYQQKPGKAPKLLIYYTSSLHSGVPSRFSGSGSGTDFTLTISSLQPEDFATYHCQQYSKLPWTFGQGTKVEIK	0.5 nM
M4-3(D6)/ML2 IgG (antibody, V domains shown, Human IgG1) VH: QVQLQESGPGLVKPSQTLSLTCTVSGGSITSGYYWNWIRQHPGKGLEWIGYITFDGKNNYNPSLKSRVTISRDTSKNQFSLKLSSVTAADTAVYYCADFDYWGQGTLVTVSS VL: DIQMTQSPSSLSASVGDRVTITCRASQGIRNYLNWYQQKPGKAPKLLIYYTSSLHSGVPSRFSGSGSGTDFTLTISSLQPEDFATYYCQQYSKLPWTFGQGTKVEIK	0.4 nM
M4-3(C1)/ML2 IgG (antibody, V domains shown, Human IgG1; copies: 2 + 2) VH: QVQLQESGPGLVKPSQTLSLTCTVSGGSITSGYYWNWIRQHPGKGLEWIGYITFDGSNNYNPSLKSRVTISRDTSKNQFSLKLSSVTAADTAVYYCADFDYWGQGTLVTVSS VL: DIQMTQSPSSLSASVGDRVTITCRASQGIRNYLNWYQQKPGKAPKLLIYYTSSLHSGVPSRFSGSGSGTDFTLTISSLQPEDFATYYCQQYSKLPWTFGQGTKVEIKR	0.9 nM
M4-3/ML2(E10/G3) IgG (antibody, V domains shown, Human IgG1) VH: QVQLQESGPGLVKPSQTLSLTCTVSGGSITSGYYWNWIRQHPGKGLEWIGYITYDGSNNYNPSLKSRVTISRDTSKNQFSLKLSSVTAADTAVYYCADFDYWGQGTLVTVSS VL: DIQMTQSPSSLSASVGDRVTITCRASYGIRGYLNWYQQKPGKAPKLLIYYTSSLHSGVPSRFSGSGSGTDFTLTISSLQPEDFATYHCQQYSALPWTFGQGTKVEIK	0.4 nM

Now examine the next entry.
Prompt: Fill in the blank: the reported Kd of M4-3/ML2(C5) IgG (antibody, V domains shown, Human IgG1) VH: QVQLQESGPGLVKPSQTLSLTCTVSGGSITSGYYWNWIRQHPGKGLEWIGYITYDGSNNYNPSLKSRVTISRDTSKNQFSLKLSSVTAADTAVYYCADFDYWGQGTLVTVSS VL: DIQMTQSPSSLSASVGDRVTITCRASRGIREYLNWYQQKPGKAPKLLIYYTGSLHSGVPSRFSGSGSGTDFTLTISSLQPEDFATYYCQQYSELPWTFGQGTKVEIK is ____.
Response: 0.4 nM
